Conditions: 293.15 K; 101 kPa; Liquid
Numbers after ± are expanded uncertainties.
QUANTITY: mass density
State the value, then name its unit.

Recorded mass density, per entry:
# SMILES RECORD, mass density
measured = [
    ("CO", "791.71 ± 0.58 kg/m3"),
    ("CCO", "789.44 ± 0.59 kg/m3"),
    ("CCCCCO", "815.13 ± 0.7 kg/m3"),
]

Here are 5 molecules. What values of mass density were reported for them?
1. CCCCCCO
2. CCCCO
3. CCCO
4. CCCCCCCCO
5. CC(C)O

[reply]
1. 820.65 ± 2.1 kg/m3
2. 809.59 ± 0.55 kg/m3
3. 803.63 ± 1.2 kg/m3
4. 825.27 ± 0.56 kg/m3
5. 785.08 ± 0.75 kg/m3

* * *

Conditions: 333.15 K; 101 kPa; Liquid
Numbers after ± are expanded uncertainties.
QUANTITY: mass density
Phrase the answer as number then unit, nothing more needed.

# COMPOUND, mass density
records = [
    ("CCCCCCCCO [octan-1-ol]", "796.93 ± 0.61 kg/m3"),
    ("CCO [ethanol]", "754.01 ± 0.66 kg/m3"),
    ("CCCCCO [pentan-1-ol]", "784.72 ± 0.75 kg/m3"),
    ("CC(C)O [propan-2-ol]", "749.01 ± 0.81 kg/m3"),
]

Required: mass density, one value per compound below.
1. CCCCCCO [hexan-1-ol]
2. CCCO [propan-1-ol]
3. CCCCO [butan-1-ol]

[reply]
790.8 ± 2.1 kg/m3
770.39 ± 1.2 kg/m3
778.03 ± 0.62 kg/m3

Measured mass density of CO [methanol] : 753.29 ± 0.66 kg/m3

* * *

Exercise: state measured mass density for each of the molecules provided.
Conditions: 323.15 K; 101 kPa; Liquid
Answers are plain numbers, in kg/m3.

# SMILES RECORD, UNITS SYMBOL, mass density
rows = [
    ("CCCO", "kg/m3", 779.01),
]

Batch lookup, mass density per entry.
1. CCCCCCO
2. CCCCO
3. CO
4. CCCCCCCCO
5. CC(C)O
6. CCO
7. CCCCCO

[reply]
[798.49, 786.19, 763.12, 804.19, 758.64, 763.17, 792.57]

* * *

Conditions: 318.15 K; 101 kPa; Liquid
QUANTITY: mass density (kg/m3)
One number for each entry, in kg/m3.

// solved cases for mass density follow
# SMILES RECORD, UNITS SYMBOL, RECORDED RESULT
measured = [
    ("CCO", "kg/m3", 767.65),
    ("CCCCCCO", "kg/m3", 802.27),
    ("CC(C)O", "kg/m3", 763.28),
]

Quick one: give me mass density for each item below, same order please.
1. CCCCCO
2. CCCO
3. CCCCCCCCO
4. CCCCO
5. CO

[reply]
1. 796.43
2. 783.22
3. 807.76
4. 790.19
5. 767.97

* * *

Conditions: 303.15 K; 101 kPa; Liquid
QUANTITY: mass density (kg/m3)
Answers are plain numbers, in kg/m3.

Consider the worked cases shown below.
# MOLECULE, UNITS SYMBOL, mass density
measured = [
    ("CCCCCCO [hexan-1-ol]", "kg/m3", 813.39),
    ("CCCCCCCCO [octan-1-ol]", "kg/m3", 818.33),
    ("CO [methanol]", "kg/m3", 782.29),
    ("CCCCO [butan-1-ol]", "kg/m3", 801.92),
    ("CCO [ethanol]", "kg/m3", 780.83),
]

For every item below, please supply its mass density.
1. CCCO [propan-1-ol]
2. CC(C)O [propan-2-ol]

[reply]
1: 795.58; 2: 776.6

Briefly, mass density measured for CCCCCO [pentan-1-ol] : 807.74

* * *

Please go through the items and note down their mass density.
Conditions: 313.15 K; 101 kPa; Liquid
Answers are plain numbers, in kg/m3.

# SMILES RECORD, mass density, kg/m3
measured = [
    ("CO", 772.78),
    ("CCCCO", 794.14),
    ("CCCCCO", 800.24),
    ("CCCCCCCCO", 811.31),
    ("CCO", 772.09),
]

Hi, could you look up mass density for each item in my list?
1. CCCO
2. CCCCCCO

[reply]
787.37
806

Entry CC(C)O — recorded mass density = 767.81

* * *

Settings: 283.15 K; 101 kPa; Liquid
QUANTITY: mass density (kg/m3)
One number for each entry, in kg/m3.

Hey, quick one: what's mass density for each of these?
1. CCCCCCCCO [octan-1-ol]
2. CCCCCCO [hexan-1-ol]

[reply]
[832.13, 827.82]

* * *

Hi there, I'd appreciate the recorded mass density for every entry that follows.
Conditions: 298.15 K; 101 kPa; Liquid
Numbers only, in kg/m3.

Recorded results for 5 compounds are shown here.
# COMPOUND, mass density (kg/m3)
measured = [
    ("CCO [ethanol]", 785.15),
    ("CCCO [propan-1-ol]", 799.62),
    ("CO [methanol]", 787.01),
    ("CCCCCCCCO [octan-1-ol]", 821.81),
    ("CCCCCO [pentan-1-ol]", 811.45),
]

Please supply mass density for each of the following items, keeping them in order.
1. CCCCCCO [hexan-1-ol]
2. CCCCO [butan-1-ol]
3. CC(C)O [propan-2-ol]

[reply]
1: 817.03; 2: 805.77; 3: 780.87

* * *

Conditions: 288.15 K; 101 kPa; Liquid
QUANTITY: mass density (kg/m3)
Numbers only, in kg/m3.

Quick one: give me mass density for each item below, same order please.
1. CCCCCCO
2. CCCCO
3. CCCO
4. CO

[reply]
[824.25, 813.38, 807.62, 796.41]

Quick request: mass density for each listed item, please.
1. CC(C)O
2. CCO
3. CCCCCCCCO
4. CCCCCO

[reply]
789.22
793.71
828.71
818.79

* * *

Details: 308.15 K; 101 kPa; Liquid
QUANTITY: mass density (kg/m3)
Numbers only, in kg/m3.

# SMILES RECORD, mass density / kg/m3
records = [
    ("CCCO", 791.49),
    ("CCCCO", 798.05),
    ("CO", 777.55),
    ("CC(C)O", 772.25),
]

Go through the list and state mass density for each entry.
1. CCCCCCO
2. CCO

[reply]
[809.71, 776.48]

Give mass density for all compounds that follow.
1. CCCCCCCCO
2. CCCCCO

[reply]
1. 814.84
2. 804.01

* * *

Conditions: 328.15 K; 101 kPa; Liquid
Provide the reported mass density of each item.
Give bare numbers, in kg/m3.

# COMPOUND, RECORDED RESULT
records = [
    ("CCO [ethanol]", 758.63),
    ("CC(C)O [propan-2-ol]", 753.88),
    ("CCCO [propan-1-ol]", 774.73),
    ("CCCCCO [pentan-1-ol]", 788.67),
    ("CCCCCCO [hexan-1-ol]", 794.67),
    ("CCCCO [butan-1-ol]", 782.14),
]

For every record below, what is its mass density?
1. CO [methanol]
2. CCCCCCCCO [octan-1-ol]

[reply]
1. 758.23
2. 800.58

* * *

Conditions: 283.15 K; 101 kPa; Liquid
± gives the expanded uncertainty stated by the source.
Please provide measured mass density for the entries that follow.

# COMPOUND, QUANTITY, RECORDED RESULT
measured = [
    ("CC(C)O [propan-2-ol]", "mass density", "793.31 ± 0.74 kg/m3"),
    ("CCCO [propan-1-ol]", "mass density", "811.57 ± 1.2 kg/m3"),
    ("CCCCO [butan-1-ol]", "mass density", "817.15 ± 0.54 kg/m3"),
]

Could you tell me mass density for each of these compounds? They are listed below.
1. CCO [ethanol]
2. CO [methanol]
3. CCCCCO [pentan-1-ol]

[reply]
797.96 ± 0.57 kg/m3
801.08 ± 0.56 kg/m3
822.42 ± 0.69 kg/m3
